Quick list: cAMP Rel EC50 (1% HSA) per entry.
Molecular target: hGLP-1R (Homo sapiens, UniProt P43220)
Sequence (P43220 24-463): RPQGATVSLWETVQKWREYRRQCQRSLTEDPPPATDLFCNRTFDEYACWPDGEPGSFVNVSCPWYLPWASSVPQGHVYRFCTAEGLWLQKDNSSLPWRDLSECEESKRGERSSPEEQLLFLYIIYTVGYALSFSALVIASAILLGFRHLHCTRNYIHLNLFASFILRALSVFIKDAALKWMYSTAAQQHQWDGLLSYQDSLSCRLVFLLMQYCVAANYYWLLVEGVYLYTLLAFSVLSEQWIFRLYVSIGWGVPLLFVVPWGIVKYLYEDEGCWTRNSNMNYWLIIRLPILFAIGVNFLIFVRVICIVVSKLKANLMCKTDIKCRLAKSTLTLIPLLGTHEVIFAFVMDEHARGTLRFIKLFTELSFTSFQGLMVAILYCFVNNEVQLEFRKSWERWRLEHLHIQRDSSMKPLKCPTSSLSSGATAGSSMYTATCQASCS
Assay: cell-based or functional assay
Starred links: 1 amine or outer side, 2 acyl side, 3 side chain; linkers in the order of their positions; H or OH if unused. Non-standard residues stand in square brackets, D forms with d. Groups on a side chain read outwards from the residue. No end group written: not given here. *: point of attachment. C20 diacid = O=C(O)CCCCCCCCCCCCCCCCCCC(=O)*; γGlu = O=C(O)[C@H](CCC(=O)[*:2])N[*:1]; AEEA = NCCOCCOCC(=O)O; Aib = CC(C)(N)C(=O)O
Entry rule: numbers only, all in nM.

In the examples that follow, each entry is paired with its recorded cAMP Rel EC50 (1% HSA).
binder: YXQGTFTSDFSKXLDKKAQXAFIEYLIEXSPSSGAPPPSGS (synthetic construct; SITE 2: note = 2-Aminoisobutyric Acid; SITE 13: note = alpha-methyl-leucine; SITE 17: note = Lysine is chemically modified through conjugation of the epsilon-amino group of the Lysine side chain with (2-[2-(2-Amino-ethoxy)-ethoxy]-acetyl)-(gamma-Glu)-CO-(CH2) 16-CO2H; SITE 20: n) [Example 805]
measure-unit: nM
cAMP Rel EC50 (1% HSA): 146
//
binder: YXQGTFTSDXSQXLDXKAQXQFIEXLIAXGPSSGEPPPSGSEE (not fully specified; Aib, 4Pal, Orn, Me4Pal, αMeY; lipidated Lys; C-terminal amide; synthetic construct; SITE 2: note = 2-Aminoisobutyric Acid; SITE 10: note = 3-(4-Pyridyl)-L-alanine; SITE 13: note = alpha-methyl-leucine; SITE 16: note = L-ornithine; SITE 17: note = Lysine is chemically modified through conjugation of the epsilon-amino group of the Lysine side chain with D-Glutami) [Example 1106]
measure-unit: nM
cAMP Rel EC50 (1% HSA): 119

Task: Please give the measured cAMP Rel EC50 (1% HSA) for this binder: Y[Aib]QGTFTSDYSKLLDKK([AEEA-γGlu-C20 diacid])AQ[Aib]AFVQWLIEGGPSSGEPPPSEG-NH2 [Example 316]
Output: 78.7

Task: Follow-up entry: YXQGTFTSDXSQXLDKKAQXAFIEXLIEGGPSSGAPPPSGS (Aib, 4Pal, Me4Pal, alpha-methyl-Leu, lipidated Lys, amide; synthetic construct; SITE 2: note = 2-Aminoisobutyric Acid; SITE 10: note = 3-(4-Pyridyl)-L-alanine; SITE 13: note = alpha-methyl-leucine; SITE 17: note = Lysine is chemically modified through conjugation of the epsilon-amino group of the Lysine side chain with (2-[2-(2-Amino-ethoxy)-ethoxy]-acetyl)) [Example 948]
Output: 304

Task: Follow-up entry: YXQGTXTSDXXIXLDXKAQXEFIEXLIEGGPSSGEPPPGGE (non-natural residues; lipidated Lys AEEA-γGlu-C18 diacid; C-term amide; synthetic construct; SITE 2: note = 2-Aminoisobutyric Acid; SITE 6: note = alpha-methyl-2-fluoro-L-phenylalanine; SITE 10: note = 3-(4-Pyridyl)-L-alanine; SITE 11: note = alpha-methyl-L-serine; SITE 13: note = alpha-methyl-leucine; SITE 16: note = L-ornithine; SITE 17: note = Lysine is chemically mo) [Example 1145]
Output: 39.1

Task: Follow-up entry: YXQGTFTSDFSXXLDKKAQXAFIEYLIEXSPSSGAPPPSGS (synthetic construct; SITE 2: note = 2-Aminoisobutyric Acid; SITE 12: note = L-ornithine; SITE 13: note = alpha-methyl-leucine; SITE 17: note = Lysine is chemically modified through conjugation of the epsilon-amino group of the Lysine side chain with (2-[2-(2-Amino-ethoxy)-ethoxy]-acetyl)-(gamma-Glu)) [Example 804]
Output: 161
